test system: Saccharomyces cerevisiae; test: protein stability index of tFT-peptide fusion (C-terminal peptide) (PSI (0-1 scale)); higher = more stable (slower turnover); conditions: genetic background: das1 deletion; temperature: 30 C;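 also: PSI is a weighted mean of sequencing reads over stability bins, variants kept only with over 10 reads, mCherry proximal and sfGFP distal, peptide attached via GGGS linker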

Chain Sequence | Target System | protein stability index
EKKKKKRKNKIK | Saccharomyces cerevisiae | 0.655
FPSCYIWEVEVM | Saccharomyces cerevisiae | 0.32
PSFLAIRVCLLV | Saccharomyces cerevisiae | 0.147
FVFIFIRVFFFR | Saccharomyces cerevisiae | 0.189
RSFGGRPWVLFL | Saccharomyces cerevisiae | 0.638
FLVVSSVGFPLL | Saccharomyces cerevisiae | 0.626
CLLWVVWSLLWV | Saccharomyces cerevisiae | 0.283
FVFCGVVFLFLL | Saccharomyces cerevisiae | 0.395
FLVFRPPALFLR | Saccharomyces cerevisiae | 0.198
GGRLGRAGGGGR | Saccharomyces cerevisiae | 0.642
CLWNFWVRFLLL | Saccharomyces cerevisiae | 0.399
LLSILSSLPLSR | Saccharomyces cerevisiae | 0.585
WSHVPLAPLSCF | Saccharomyces cerevisiae | 0.337
ATLWVWCFSSHV | Saccharomyces cerevisiae | 0.469
GRVETIEFLFLR | Saccharomyces cerevisiae | 0.368
WFAHGLRHFRIL | Saccharomyces cerevisiae | 0.661
SMFFLFFFFFFF | Saccharomyces cerevisiae | 0.35
GLFFLCLLSMCF | Saccharomyces cerevisiae | 0.306
RVIRHLRRISNF | Saccharomyces cerevisiae | 0.661
GGVVLVVVFCCV | Saccharomyces cerevisiae | 0.217
FLPHLMCVFSFC | Saccharomyces cerevisiae | 0.394
FGEDFCHLLWCC | Saccharomyces cerevisiae | 0.583
VFFRCVCCLSVF | Saccharomyces cerevisiae | 0.327
HHRLRQGLRRIN | Saccharomyces cerevisiae | 0.638
PFFSSLKYRRDH | Saccharomyces cerevisiae | 0.668
VVMASSIIVVAG | Saccharomyces cerevisiae | 0.11
KRRKERIKIQQI | Saccharomyces cerevisiae | 0.634
LVLALTPFLHSF | Saccharomyces cerevisiae | 0.638
SLTNYQRLIHVC | Saccharomyces cerevisiae | 0.223
LFLTSFRFLRLF | Saccharomyces cerevisiae | 0.509
AITHVILLVTPL | Saccharomyces cerevisiae | 0.411
WQGWFLSLCIWV | Saccharomyces cerevisiae | 0.3
SFRIWLFRFFFV | Saccharomyces cerevisiae | 0.555
LFHFPSWIFCLL | Saccharomyces cerevisiae | 0.55
LSLLILFVLLSF | Saccharomyces cerevisiae | 0.355
GPVRSPPSPTPR | Saccharomyces cerevisiae | 0.682
CPICDFLFLALF | Saccharomyces cerevisiae | 0.483
RMTFFGFTVKML | Saccharomyces cerevisiae | 0.619
PWGVGLACLFLL | Saccharomyces cerevisiae | 0.585
FFFSLFFVLFFA | Saccharomyces cerevisiae | 0.21
MLFALLTIVFLG | Saccharomyces cerevisiae | 0.242
